Reference for the values: PubChem BioAssay (NCI)

# Test system: LOX IMVI melanoma
# protocol: NCI-60 one-dose screen, 48 h (100 = growth as untreated, 0 = no growth, -100 = all killed)
# experimentalConditions: 10 µM unless noted
Compounds without any hit were thinned out: in the full panel of roughly 83,000, 20% have a hit.
Checkbox rule: growth lower than 30% = rule met; growth not lower than 30% = rule not met.

Field: example entries. Status: answers known.
[[record]]
structuresmiles = "O=C1COCCN1c1ccc(Nc2nc(Cl)nc(OCc3cn(Cc4ccccc4)nn3)n2)cc1"
categorylabel = "rule not met"

[[record]]
structuresmiles = "N=C(N)c1ccc(-c2ccc(-c3ccc(Cl)cc3)s2)nc1"
categorylabel = "rule met"

[[record]]
structuresmiles = "C=C(C)[C@@H]1CC[C@]2(C)[C@H](CC=C3[C@@H]4[C@H](C)[C@@H](C)CC[C@]4(CO)CC[C@]32C)[C@@]1(C)CCCN"
categorylabel = "rule met"

[[record]]
structuresmiles = "O=C1c2c(c3c4ccc(Br)cc4oc3c3[nH]c4ccccc4c23)C(=O)N1O"
categorylabel = "rule met"

[[record]]
structuresmiles = "COP(=O)(OC)C(C)(C)CC(=O)CC(C#N)(C#N)C(C#N)C#N"
categorylabel = "rule not met"

[[record]]
structuresmiles = "CS(=O)(=O)Nc1cc(-c2ccc3ncnc(Nc4ccc5c(cnn5Cc5ccccn5)c4)c3c2)cnc1Cl"
categorylabel = "rule not met"

[[record]]
structuresmiles = "COc1ccc2c(O)c(/C=C3\\N=Nc4ccccc43)oc2c1C[C@@H]1CCNC[C@H]1F"
categorylabel = "rule met"


Inquiry: Please determine if CC(C)(C)n1cc(-c2ccnc(NCCCNS(=O)(=O)c3ccc(F)cc3)c2)c(-c2cccc(F)c2)n1 is below 30% in terms of growth.
Reply text: rule not met

* * *

# Test system: T-47D breast
# protocol: NCI-60 one-dose screen, 48 h
# experimentalConditions: 10 µM unless noted
About 83,000 compounds went through this panel and 20% of them were active in at least one assay; those are over-represented in the sample as a whole. The source made the active and inactive calls. The calls were made as follows: active = growth percent below 10; inactive = the rest.
Entry note: the call must match one of yes (active), no (inactive)

Field: example entries. Status: answers known.
[[record]]
compound = "C=C1C(=O)O[C@H]2[C@H]1CC/C(COC(=O)NCc1cc[nH]c1)=C\\CC[C@@]1(C)O[C@@H]21"
categorylabel = "no"

[[record]]
compound = "O=C1/C(=C/c2ccc(F)cc2)COc2ccc(O)c(O)c21"
categorylabel = "yes"

[[record]]
compound = "N#Cc1nn(-c2cc(=O)[nH]c3ccc(Cl)cc23)c(N)c1C#N"
categorylabel = "no"


Inquiry: Give the logged outcome of this assay for the following compound: C[C@]12C=CC(=O)C=C1CCC1C2[C@@H](O)C[C@@]2(C)C1CC[C@]2(O)C(=O)COC(=O)CCC(=O)O (stereo partly drawn)
Reply text: no

Inquiry: Give the logged outcome of this assay for the following compound: CC(C)CCNC(=O)Cn1cccc(NC(=O)OCc2ccccc2)c1=O
Reply text: no

Inquiry: Give the logged outcome of this assay for the following compound: Cn1c(O)c(C=NCCN=Cc2c(O)n(C)c(=O)n(C)c2=O)c(=O)n(C)c1=O
Reply text: no

Inquiry: Give the logged outcome of this assay for the following compound: Cc1ccc2c(n1)C(=O)c1[nH]c3ccccc3c1C2=O
Reply text: no

Inquiry: Give the logged outcome of this assay for the following compound: Nc1ncnc2c1N=C(c1ccc(Cl)cc1)CC(c1ccc3c(c1)OCO3)N2 (stereo not drawn)
Reply text: no

Inquiry: Give the logged outcome of this assay for the following compound: Cc1ccc(/C=C2\CN(C(=O)OC(C)(C)C)C/C(=C\c3ccc(C)cc3)C2=O)cc1
Reply text: no

Inquiry: Give the logged outcome of this assay for the following compound: O=C(CCc1nnc(Cn2cnc3nc[nH]c3c2=O)o1)c1nc2ncccc2[nH]1
Reply text: no

Inquiry: Give the logged outcome of this assay for the following compound: COc1cc2c(c(OC)c1OC)CCC(c1cccc(C(=O)Nc3cccc(Br)c3)c1)O2 (stereo not drawn)
Reply text: no

Inquiry: Give the logged outcome of this assay for the following compound: O=[N+]([O-])/C(=C/C=C/c1ccccc1)c1ccccc1
Reply text: no

Inquiry: Give the logged outcome of this assay for the following compound: N#Cc1cnc(NCCc2ccncc2)nc1-n1cnc2ccccc21
Reply text: no

Inquiry: Give the logged outcome of this assay for the following compound: CCN(CC)CCSc1nc(-c2ccccc2)c(C#N)c(=O)[nH]1
Reply text: no

Inquiry: Give the logged outcome of this assay for the following compound: O=C(/C=C/c1cn(-c2ccccc2)nc1-c1ccc([N+](=O)[O-])cc1)c1ccc(Cl)cc1
Reply text: no

Inquiry: Give the logged outcome of this assay for the following compound: COc1ccc(-c2ccc3cnc4sc(-c5ccc(OC)cc5)nc4c3n2)cc1
Reply text: no

Inquiry: Give the logged outcome of this assay for the following compound: CCCCC(=O)c1ccco1
Reply text: no
